For Histamine H1 receptor (Homo sapiens), measured Ki is reported for the entries below.
MEASURE: Ki (µM)

>>> print(df.to_string())
                               given_smiles  measure  reported_measurement
0  O=C(c1cc2ccccc2[nH]1)N1CCN(CCOC(c2ccccc2)c2ccccc2)CC1       Ki                 0.224
1  COc1ccc(CN(CCN2CCN(C(=O)c3cc4cc(Cl)ccc4[nH]3)CC2)c2ccccn2)cc1       Ki                 0.776

###

biological target: UniProt:P31389; assay: Antagonist activity at H1R in guinea pig ileum assessed as inhibition of histamine-induced muscle contraction after 15 mins; type: functional, tissue-based; conditions: read-out: pA2 (converted)
Sequence (P31389 whole entry): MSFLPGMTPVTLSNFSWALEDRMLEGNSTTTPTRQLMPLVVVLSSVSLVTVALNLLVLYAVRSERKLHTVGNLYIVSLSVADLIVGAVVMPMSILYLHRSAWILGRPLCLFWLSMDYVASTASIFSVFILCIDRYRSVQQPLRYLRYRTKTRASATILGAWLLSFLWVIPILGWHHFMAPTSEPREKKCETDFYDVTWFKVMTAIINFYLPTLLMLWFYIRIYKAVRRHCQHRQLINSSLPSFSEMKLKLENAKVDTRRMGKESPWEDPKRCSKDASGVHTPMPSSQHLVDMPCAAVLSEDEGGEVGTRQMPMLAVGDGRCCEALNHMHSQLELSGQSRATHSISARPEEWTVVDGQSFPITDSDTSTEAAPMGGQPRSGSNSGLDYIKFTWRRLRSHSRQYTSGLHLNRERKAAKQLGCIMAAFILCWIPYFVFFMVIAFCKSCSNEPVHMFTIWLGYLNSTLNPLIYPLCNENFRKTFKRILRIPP
We use 10 nM as the dividing line for Kb: on or above the line is Yes, below is No.

                                   compound    study_target  class
0  COc1ccc(CN(CCN(C)CC(C)Nc2ccc3[nH]c(C(=O)N4CCN(C)CC4)cc3c2)c2ccccn2)cc1 (racemic)  UniProt:P31389    Yes
1  COc1ccc(CN(CCN2CCN(C(=O)c3cc4ccccc4[nH]3)CC2)c2ccccn2)cc1  UniProt:P31389    Yes
2  COc1ccc(CN(CCN(C)CCN2CCN(C(=O)c3cc4cc(Cl)ccc4[nH]3)CC2)c2ccccn2)cc1  UniProt:P31389     No
3  COc1ccc(CN(CCN[C@H]2CCN(C(=O)c3cc4ccccc4[nH]3)C2)c2ccccn2)cc1  UniProt:P31389     No
4  COc1ccc(CN(CCN(C)CCN2CCN(C(=O)c3cc4ccccc4[nH]3)CC2)c2ccccn2)cc1  UniProt:P31389     No
5  COc1ccc(CN(CCN2CCN(C(=O)c3nc4ccccc4[nH]3)CC2)c2ccccn2)cc1  UniProt:P31389     No
6  COc1ccc(CN(CCN2CCN(C(=O)c3cc4cc(Cl)ccc4[nH]3)CC2)c2ccccn2)cc1  UniProt:P31389    Yes

###

molecular target: Histamine H4 receptor (Homo sapiens, UniProt Q9H3N8); assay: Inverse agonist activity at human H4R expressed in Sf9 cells co-expressing RGS19, Galphai2 and Gbeta1gamma2 assessed as […] of [35S]GTPgammaS binding; type: functional
Sequence (Q9H3N8 whole entry): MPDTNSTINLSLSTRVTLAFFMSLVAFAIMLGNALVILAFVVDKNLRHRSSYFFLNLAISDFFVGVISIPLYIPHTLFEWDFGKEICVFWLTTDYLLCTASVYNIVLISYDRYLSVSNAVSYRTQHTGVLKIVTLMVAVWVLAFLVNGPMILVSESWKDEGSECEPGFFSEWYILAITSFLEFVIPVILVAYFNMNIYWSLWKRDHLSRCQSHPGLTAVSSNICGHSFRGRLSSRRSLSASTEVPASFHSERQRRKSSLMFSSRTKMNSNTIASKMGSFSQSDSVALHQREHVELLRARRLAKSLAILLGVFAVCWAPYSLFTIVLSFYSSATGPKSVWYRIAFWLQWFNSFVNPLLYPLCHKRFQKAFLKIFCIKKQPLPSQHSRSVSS
MEASURE: EC50

                               given_smiles                              study_target  measure  reported_measurement
0  COc1ccc(CN(CCN(C)CCN2CCN(C(=O)c3cc4ccccc4[nH]3)CC2)c2ccccn2)cc1  Histamine H4 receptor (Homo sapiens, UniProt Q9H3N8)     EC50              > 100 µM

###

molecular target: Histamine H4 receptor (Homo sapiens); assay: Displacement of [3H]histamine from human H4R expressed in Sf9 cells co-expressing RGS19, Galphai2 and Gbeta1gamma2 after 60 mins by liquid scintillation counting
pKi: −log10 of the molar value.
Recorded measurements of pKi, one per entry
MEASURE: pKi

In [3]: df
Out[3]:
                               given_smiles  measure  reported_measurement
0  O=C(c1cc2ccccc2[nH]1)N1CCN(CCOC(c2ccccc2)c2ccccc2)CC1      pKi                  4.75
1  COc1ccc(CCN2CCC(Nc3nc4ccccc4n3Cc3ccc(F)cc3)CC2)cc1      pKi                  5.10
2  COc1ccc(CN(CCN2CCN(C(=O)c3nc4ccccc4[nH]3)CC2)c2ccccn2)cc1      pKi                  4.65
3  COc1ccc(CN(CCN2CCN(C(=O)c3cc4cc(Cl)ccc4[nH]3)CC2)c2ccccn2)cc1      pKi                  4.80

Where do these numbers come from? They come from ChEMBL document CHEMBL1909509.
